# target-system: T1, soluble recombinant human uPAR/His6 (R&D Systems, Cat. # 807-UK-100) (human, UniProt Q03405 23-303)
# T1 construct: range 1-303; Bought protein; also called soluble uPAR; hu-uPAR
# T1 sequence (Q03405 other isoform, or with tags, fused parts or gaps limits assumed, form in doubt): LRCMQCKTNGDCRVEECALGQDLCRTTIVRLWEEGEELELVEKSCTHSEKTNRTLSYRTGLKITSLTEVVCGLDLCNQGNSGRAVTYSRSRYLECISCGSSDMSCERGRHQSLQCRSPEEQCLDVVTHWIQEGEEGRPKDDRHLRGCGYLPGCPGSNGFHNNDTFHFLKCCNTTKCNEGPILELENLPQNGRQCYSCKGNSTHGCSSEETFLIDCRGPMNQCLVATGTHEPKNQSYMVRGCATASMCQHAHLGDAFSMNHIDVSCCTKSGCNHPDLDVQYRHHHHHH
# assay-procedure: limited antigen ELISA, uPAR coat 20 ng/mL, sample 1:25
Reported LA at 20 ng/ml values for a set of binders
Please respond with just the number, no unit label.

Below, 2 binders whose answers are already recorded.
# binder, LA at 20 ng/ml
records = [
    ("fully human monoclonal antibody 2.6.1 (ATCC Accession Number PTA-7475) (antibody, V domains shown, also called mAb 2.6.1) VH: EVQLVESGGGLIQPGGSLRLSCAASGFTVITNYMNWVRQAPGKGLEWVSIIYTGGSTSYADSVKGRFTVSRDNSKNTLYLHMNSLRVEDTAVYYCAREIAVAGYYGMDVWGQGTTVTVS VL: DIQMTQSPSSLSASVGDRVTITCRASQGIRNDLGWYQQKPGKAPKRLIYAASSLQSGVPSRFSGSGSGTEFTLTISSLQPEDFATYYCLQHNSYPLTFGGGTRVEIK", 0.63),
    ("anti-uPAR monoclonal antibody 1.41.1 (antibody, V domains shown) VH: QVQLVESGGGVVQPGRSLRLSCAAPGFTFSSYGMHWVRQAPGKGLEWVAVIWYDGSQKYYADSVKGRFTISRDNSKNTLYLQMNSLRAEDTAVYYCARGMTYYYYYGMDVWGQGTTVTVSS VL: EIVMTQSPAILSVSPGERATLSCRASQSVSSKLDWYQQKPGQAPRLLIYGASTRATGIPARFSGSGSGTEFTLTISSLQSEDFAVYYCQQYNNWPRTFGQGTKVEIK", 0.27),
]

Moving on to another binder below.
Ask: Name the reported LA at 20 ng/ml value associated with the binder anti-uPAR monoclonal antibody 3.8.3 (antibody, V domains shown) VH: EVQLVESGGGLVQPGGSLRLSCAASGFTFSSYWMSWVRQAPGKGLEWVANIKQHGSEKYYVDSVKGRFTISRDNAKNSLYLQMNSLRAEDTAVYYCAREEAYYYDNSGYYWYFDLWARGTLVTVSS VL: DIQMTQSPSSVSASIGDRVTITCRASQGISSWLAWYQQKPGKTPKLLIYAASSLQSGVPSRFSGSGSGTDFTLTISSLQPEDFATYYCQQADSFPWTFGQGTKVEIK
Result: 0.67
